# test: Cytotoxicity against human MT4 cells assessed as reduction in cell viability by MTT assay
# Format: toxicity, cell-based
quantity-kind: CC50 (µM)
Report the value in µM with no unit label.

Guide cases for CC50, answers given:
chemical-structure: Cc1cccc(-c2cc(C)c(Oc3cc(N)nc(Nc4ccc(C#N)cc4)n3)c(C)c2)c1
experimental-result: 27.6
//
chemical-structure: Cc1cc(-c2ccccc2C#N)ccc1Oc1cc(N)nc(Nc2ccc(C#N)cc2)n1
experimental-result: 28.6
//
chemical-structure: Cc1cc(-c2cccc(C#N)c2)ccc1Oc1cc(N)nc(Nc2ccc(C#N)cc2)n1
experimental-result: 27.4
//
chemical-structure: Cc1cc(-c2ccccc2Cl)cc(C)c1Oc1cc(N)nc(Nc2ccc(C#N)cc2)n1
experimental-result: 25.1

Here's the next entry for you.
Challenge: I'd like to know its CC50. The molecule in question is Cc1cc(-c2ccc(Cl)cc2)cc(C)c1Oc1cc(N)nc(Nc2ccc(C#N)cc2)n1
Response given: 21.5

###

# test: Cmax in Sprague-Dawley rat at 5 mg/kg, po measured after 0.083 to 24 hrs by LC-MS analysis
# Assay type: ADME, organism-based
# Parameters: dose 5 mg/kg, time 0.083-24 hrs, route po
# assay-context: in vivo
quantity-kind: Cmax
Please give the number followed by its unit.

Challenge: Cmax for COc1cc(-c2ccc(C#N)cc2)ccc1Oc1cc(N)nc(Nc2ccc(C#N)cc2)n1 ?
Response given: 44.8 ng/mL

###

# target-entity: Cytochrome P450 2C19 (Homo sapiens, UniProt P33261)
# Sequence (P33261 whole entry): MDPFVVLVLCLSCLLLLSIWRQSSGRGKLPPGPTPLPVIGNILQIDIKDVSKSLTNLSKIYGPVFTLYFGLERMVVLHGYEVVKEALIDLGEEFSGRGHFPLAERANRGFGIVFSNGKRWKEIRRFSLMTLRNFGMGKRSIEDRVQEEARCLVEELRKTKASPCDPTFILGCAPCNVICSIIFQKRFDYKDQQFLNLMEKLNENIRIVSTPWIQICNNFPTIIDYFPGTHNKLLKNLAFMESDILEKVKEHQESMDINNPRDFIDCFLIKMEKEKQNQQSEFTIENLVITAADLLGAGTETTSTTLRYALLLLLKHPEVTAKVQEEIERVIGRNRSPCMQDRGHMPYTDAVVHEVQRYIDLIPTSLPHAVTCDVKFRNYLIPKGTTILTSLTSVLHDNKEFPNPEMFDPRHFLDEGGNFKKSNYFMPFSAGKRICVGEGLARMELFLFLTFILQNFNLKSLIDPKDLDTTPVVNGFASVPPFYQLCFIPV
quantity-kind: IC50 (µM)
Numbers only here, please. The scale is µM.

Challenge: Hi! What's the reported IC50 for COc1cc(-c2ccc(C#N)cc2)ccc1Oc1cc(N)nc(Nc2ccc(C#N)cc2)n1 on Cytochrome P450 2C19 (Homo sapiens, UniProt P33261)?
Response given: 4.51

###

compounds and their reported pEC50
# Tested on: Human immunodeficiency virus 1
# test: microbe, parasite or virus in culture
# assay-context: Human immunodeficiency virus 1, IIIB, MT4
# Description: Antiviral activity against wild type HIV-1 IIIB infected in human MT4 cells assessed as protection against virus-induced cytopathic effect by MTT assay
Formally, pEC50 is defined as -log10 of the concentration c, with c in mol/L.

# example entries with known answers
compound: COc1ccccc1-c1cc(C)c(Oc2cc(N)nc(Nc3ccc(C#N)cc3)n2)c(C)c1
pEC50: 7.37
//
compound: Cc1cc(-c2ccc(F)cc2)ccc1Oc1cc(N)nc(Nc2ccc(C#N)cc2)n1
pEC50: 8.02

Challenge: Could you share which pEC50 value was measured for Cc1cc(-c2ccccc2C#N)cc(C)c1Oc1cc(N)nc(Nc2ccc(C#N)cc2)n1 ?
Response given: 8.15

Challenge: Quick one: pEC50 for Cc1cc(-c2ccc(C#N)cc2)cc(C)c1Oc1cc(N)nc(Nc2ccc(C#N)cc2)n1 ?
Response given: 8.33

Challenge: Bench note: what pEC50 did Cc1cc(-c2cccc(F)c2)ccc1Oc1cc(N)nc(Nc2ccc(C#N)cc2)n1 show?
Response given: 7.22

Challenge: Tell me the measured pEC50 of COc1cc(-c2ccc(C#N)cc2)ccc1Oc1cc(N)nc(Nc2ccc(C#N)cc2)n1 , please.
Response given: 8.72

Challenge: State the recorded pEC50 for this entry: Cc1cc(-c2ccccc2F)cc(C)c1Oc1cc(N)nc(Nc2ccc(C#N)cc2)n1
Response given: 8.02

Challenge: Endpoint output: pEC50 of Cc1cc(-c2cccc(F)c2)cc(C)c1Oc1cc(N)nc(Nc2ccc(C#N)cc2)n1 . Value?
Response given: 7.80

Challenge: Requested field: pEC50. Item: Cc1cc(-c2ccc(F)cc2)cc(C)c1Oc1cc(N)nc(Nc2ccc(C#N)cc2)n1
Response given: 7.87

Challenge: Need pEC50, item Cc1cc(C#N)cc(C)c1Oc1nc(Nc2ccc(C#N)cc2)nc(N)c1Br [ETRAVIRINE]
Response given: 8.54

Challenge: What does the record list as pEC50 for Cc1cc(-c2ccc(C#N)cc2)ccc1Oc1cc(N)nc(Nc2ccc(C#N)cc2)n1 ?
Response given: 8.70

Challenge: State the recorded pEC50 for this entry: Cc1ccccc1-c1cc(C)c(Oc2cc(N)nc(Nc3ccc(C#N)cc3)n2)c(C)c1
Response given: 7.45

Challenge: GET /values?readout=pEC50&item= Cc1cc(-c2ccccc2C#N)ccc1Oc1cc(N)nc(Nc2ccc(C#N)cc2)n1
Response given: 8.01

Challenge: I have this compound here, Cc1cc(-c2ccccc2)ccc1Oc1cc(N)nc(Nc2ccc(C#N)cc2)n1 , and I need its recorded pEC50.
Response given: 7.72

Challenge: Name the recorded pEC50 for COc1cccc(-c2cc(C)c(Oc3cc(N)nc(Nc4ccc(C#N)cc4)n3)c(C)c2)c1 .
Response given: 8.01

Challenge: So what's the measured pEC50 for this one? COc1cc(Oc2cc(N)nc(Nc3ccc(C#N)cc3)n2)ccc1-c1ccc(C#N)cc1
Response given: 8.64

Challenge: Given the compound Cc1cc(-c2ccccc2F)ccc1Oc1cc(N)nc(Nc2ccc(C#N)cc2)n1 , what is its reported pEC50?
Response given: 7.94

Challenge: Can you share its pEC50? I mean this compound: Cc1cc(Oc2cc(N)nc(Nc3ccc(C#N)cc3)n2)ccc1-c1ccc(C#N)cc1
Response given: 8.64

Challenge: What value of pEC50 has been recorded for this entry: Cc1cc(-c2cccc(Cl)c2)cc(C)c1Oc1cc(N)nc(Nc2ccc(C#N)cc2)n1
Response given: 7.42

Challenge: Consider the compound shown here: Cc1cc(-c2ccccc2)cc(C)c1Oc1cc(N)nc(Nc2ccc(C#N)cc2)n1 What is its recorded pEC50?
Response given: 8.01

###

# test: in vitro
# assay-context: human, liver
quantity-kind: CLint scaled at 0.75 h, 1 µM (mL/min/kg)
Write the number in mL/min/kg without appending the unit.

Challenge: Can you look up the measured CLint scaled at 0.75 h, 1 µM of Cc1cc(Oc2cc(N)nc(Nc3ccc(C#N)cc3)n2)ccc1-c1ccc(C#N)cc1 for me?
Response given: 1.08

###

# test: AUC (0 to t) in Sprague-Dawley rat at 1 mg/kg, iv measured after 0.083 to 24 hrs by LC-MS analysis
# Format: ADME, organism-based
# Parameters: time upper 24 hrs, dose 1 mg/kg, time lower 0.083 hrs, route iv
# assay-context: in vivo
quantity-kind: AUC(0-t) (ng·h/mL)
A number alone suffices; assume ng·h/mL.

Challenge: Give the measured AUC(0-t) of COc1cc(-c2ccc(C#N)cc2)ccc1Oc1cc(N)nc(Nc2ccc(C#N)cc2)n1 .
Response given: 326

###

# target-entity: Cytochrome P450 2C9 (Homo sapiens)
# Sequence (P11712 whole entry): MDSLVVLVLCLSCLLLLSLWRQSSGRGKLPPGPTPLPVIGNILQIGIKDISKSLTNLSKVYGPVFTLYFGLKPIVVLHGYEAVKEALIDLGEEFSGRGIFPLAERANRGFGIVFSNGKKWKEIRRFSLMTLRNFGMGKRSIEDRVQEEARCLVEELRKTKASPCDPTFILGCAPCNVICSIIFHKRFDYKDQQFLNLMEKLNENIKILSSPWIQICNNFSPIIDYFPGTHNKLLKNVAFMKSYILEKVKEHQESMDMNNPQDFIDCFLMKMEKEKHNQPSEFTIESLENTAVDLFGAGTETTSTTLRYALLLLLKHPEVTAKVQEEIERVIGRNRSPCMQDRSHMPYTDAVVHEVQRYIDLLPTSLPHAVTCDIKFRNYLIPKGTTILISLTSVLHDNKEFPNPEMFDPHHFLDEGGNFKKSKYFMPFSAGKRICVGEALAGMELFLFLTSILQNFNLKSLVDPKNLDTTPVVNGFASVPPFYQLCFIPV
quantity-kind: pIC50
For clarity, pIC50 is expressed as the negative log10 of concentration in mol/L.

Challenge: GET /values?readout=pIC50&item= COc1cc(-c2ccc(C#N)cc2)ccc1Oc1cc(N)nc(Nc2ccc(C#N)cc2)n1
Response given: 5.29

###

# test: Half life in Sprague-Dawley rat at 5 mg/kg, po measured after 0.083 to 24 hrs by LC-MS analysis
# Assay type: ADME, organism-based
# assay-context: in vivo, time 0.083-24 hrs
quantity-kind: half-life
Lab note: write values as number then unit, every time.

Challenge: Look at this molecule and give its reported half-life. COc1cc(-c2ccc(C#N)cc2)ccc1Oc1cc(N)nc(Nc2ccc(C#N)cc2)n1
Response given: 2.33 h

###

# test: in vitro
# assay-context: human, microsomes
quantity-kind: half-life at 0.75 h, 1 µM (min)
All answers are understood in min, so give the number only.

Challenge: Field request: half-life at 0.75 h, 1 µM | item: O=C(O)Cc1ccccc1Nc1c(Cl)cccc1Cl [DICLOFENAC]
Response given: 9.25

###

# test: Clearance in Sprague-Dawley rat at 5 mg/kg, po measured after 0.083 to 24 hrs by LC-MS analysis
# Type: ADME, organism-based
# assay-context: in vivo, time 0.083-24 hrs
quantity-kind: CL/F (mL/min/kg)
The reply should contain only the number, in mL/min/kg.

Challenge: Entry under review: COc1cc(-c2ccc(C#N)cc2)ccc1Oc1cc(N)nc(Nc2ccc(C#N)cc2)n1 . Reported CL/F?
Response given: 675

###

# test: in vitro
# assay-context: human, MT4 cells
# Description: Selectivity index, ratio of CC50 for cytotoxicity against human MT4 cells to EC50 for antiviral activity against wild type HIV-1 IIIB infected in human MT4 cells
quantity-kind: selectivity ratio
Write no unit; give the number alone.

Recorded selectivity ratio, per entry:
chemical-structure: Cc1cc(-c2ccc(C#N)c(F)c2)ccc1Oc1cc(N)nc(Nc2ccc(C#N)cc2)n1
selectivity ratio: 1090
--
chemical-structure: Cc1cc(-c2ccc(Cl)cc2)cc(C)c1Oc1cc(N)nc(Nc2ccc(C#N)cc2)n1
selectivity ratio: 628

Challenge: Need selectivity ratio of Cc1cc(-c2ccc(C#N)c(C#N)c2)cc(C)c1Oc1cc(N)nc(Nc2ccc(C#N)cc2)n1 , thanks.
Response given: 3090

Challenge: Which selectivity ratio is reported for this molecule? COc1cccc(-c2cc(C)c(Oc3cc(N)nc(Nc4ccc(C#N)cc4)n3)c(C)c2)c1
Response given: 1980

Challenge: Fill in: selectivity ratio of Cc1cc(-c2ccccc2Cl)cc(C)c1Oc1cc(N)nc(Nc2ccc(C#N)cc2)n1 is ___
Response given: 882

Challenge: Dear colleague, I am looking for the recorded selectivity ratio of the following molecule: Cc1cc(-c2ccc(C#N)cc2)ccc1Oc1cc(N)nc(Nc2ccc(C#N)cc2)n1
Response given: 5250

Challenge: // returns reported selectivity ratio for input Cc1cc(Oc2cc(N)nc(Nc3ccc(C#N)cc3)n2)ccc1-c1ccc(C#N)cc1
Response given: 15100
